target: T1, SARS-COV-2 RBD (SARS-COV-2, UniProt P0DTC2 319-539); assay: ELISA, RBD coated
T1 construct: also called WT RBD
Can you tell me EC50 for the items I'm about to list?
Answers are plain numbers, in ng/mL.

Please review the following examples before continuing.
BINDER: C876 (antibody, V domains shown, IgG; V domains only) VH: EVQLVESGGGLIQPGGSLRLSCAASEFVISRNYMSWVRQAPKKGLEWVSVLYSGGSTFYADSVKGRFTISRDDSRNMLYLQMNSLRAEDTAVYYCVRDFGEFYFDYWGQGVLVTVSS VL: EIVMTQSPTTLSVSPGERATLSCRASQSLSSNLAWYQQKPGQAPRLLIFGVSTRATGIPARFSGSGSGTEFTLTISSLQSEDFAVYYCQQYYSGPRTFGQGTKVEIK
RECORDED METRIC: EC50
VALUE MEASURED: 3.53
//
BINDER: C1045 (antibody, V domains shown, IgG; V domains only) VH: QVQLQESGPGLVKPSQTLSLTCTVSGDSISSGNYYWSWIRQPAGKGLEWIGHIYTSGSPNYKPSLKSRVTISLDTSKNQFSLKLTSVTAADTAMYYCARDIPSTWYFDLWGRGTLVTVSS VL: SYELTQPPSVSVAPGKTARIPCGGTDIGSKNVHWYQQKPGQAPVLAVYDDSDRPSGIPERFSGSNSGSTATLTISRVEAGDEADYYCQVWDSSGDRLSWVFGGGTKLTVL
RECORDED METRIC: EC50
VALUE MEASURED: 2.57
//
BINDER: C868 (antibody, V domains shown, IgG; V domains only) VH: QVQLQESGPRLVKPSETLSLTCIVSGGSVSSNNFYWSWIRQPPGKRLEWIGYFYNSGSSKYNPSLKSRVTISGDTSKNQFSLKLSSVTAADTAVYYCARETFFYDRTGHYKSDGFDVWGQGTMVTVSS VL: DIQMTQSPSTLSASVGDRVTISCRASQNISSWLAWYQQEAGKAPKLLIYKASSLESGVPSRFSGSGSGTEFTLTISSLQPGDFATYYCQQYNIYSYTFGQGTKLEIK
RECORDED METRIC: EC50
VALUE MEASURED: 3.39
//
BINDER: C1025 (antibody, V domains shown, IgG; V domains only) VH: EVQLVESGGGLVQPGRSLRLSCAASGFTFDDYAMHWVRQVPGKGLEWVSGVSWNGDSVGYADSMEGRFTISRDNAKNSLYLQMNSLRTEDTALYYCAKGVDYSSSSNFDFWGQGTLVTVSS VL: DIQMTQSPSSVSASVGDRVTITCRASQGISSWLAWYQQKPGKAPKLLISLASSLQSGVPSRFSGSGSETDFTLIISSLQPEDFATYYCQQSSSFPLTFGGGTKVEIK
RECORDED METRIC: EC50
VALUE MEASURED: 2.51

Please examine the following record next.
Given item C1001 (antibody, V domains shown, IgG; V domains only) VH: QVQLQESGPGLVKPSQTLSLTCTVSGGSISSGDYYWTWIRQPPGKGLEWIGYIFYSGITYYSPSLKSRLTMSIDTSKSQFSLNLSSVTAADTAVYYCARWKRLLQSLHFDYWGQGILVTVSS VL: QSALTQPRSVSGSPGQSVTISCTGTSSDVGSYDYVSWYQQHPGKAPKVMIYGVDERPSGVPHRFSGSKSGNTASLTISGLQADDEADYFCCFYAGSYTLLFGGGTKVTVL , the value recorded as its EC50 is 3.23
